Target: Muscleblind-like protein 1 (Homo sapiens) (UniProt Q9NR56)
Sequence (Q9NR56 whole entry, looked up): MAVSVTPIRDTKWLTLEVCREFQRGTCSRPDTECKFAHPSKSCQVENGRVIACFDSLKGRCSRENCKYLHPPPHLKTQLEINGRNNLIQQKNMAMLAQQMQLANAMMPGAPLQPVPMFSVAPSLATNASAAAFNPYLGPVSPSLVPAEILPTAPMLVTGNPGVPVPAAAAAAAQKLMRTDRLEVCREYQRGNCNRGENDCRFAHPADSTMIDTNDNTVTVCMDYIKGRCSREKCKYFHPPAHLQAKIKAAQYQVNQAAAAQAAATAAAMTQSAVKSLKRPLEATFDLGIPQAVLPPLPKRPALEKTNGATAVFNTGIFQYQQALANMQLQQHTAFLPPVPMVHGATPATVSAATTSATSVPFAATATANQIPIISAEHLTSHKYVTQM
Assay: qHTS Assay for Inhibitors of MBNL1-poly(CUG) RNA binding
Conditions: TR-FRET MBNL1-His/biotin-(CUG)12 binding, 665/545 ratio; series mostly up to 57.5 µM
Hit rate of the full screen: of about 280,000 compounds, about 100 (0.036%) were called active. Another 11% or so got no clear call; they are omitted. This is one part of a sample in which actives are shown more often than they occur.
quantity: activity change, negative = inhibition

Previously resolved entries follow.
>>> measurement("Cc1sc2ncn(CC(=O)NCCN(C)C)c(=O)c2c1S(=O)(=O)N1CCC(C)CC1")
"inactive"
>>> measurement("CC(=O)c1ccc(NC(=O)c2sc3nc4n(c(=O)c3c2C)CCCCC4)cc1")
"inactive"
>>> measurement("CCC(=O)c1cn(CCOc2ccccc2OC)c2ccccc12")
"inactive"
>>> measurement("COc1ccc(-c2nn(-c3ccccc3)cc2/C=C2/SC(=S)N(CCCC(=O)O)C2=O)c(C)c1")
"inactive"

Each compound below has a recorded value; state its activity change, negative = inhibition.
1. Cc1cnc(C)c(N2CCN(C(=O)C3CCC(=O)N(CCc4cccc(F)c4)C3)CC2)n1 (stereo unspecified)
2. COc1ccc(NC(=O)c2cccc3c2C(=O)N(CC2CCCO2)C3)cc1OC (stereo unspecified)
3. CCOc1ccc(NC(=O)CN2CCN(CC(=O)Nc3ccc(OC)cc3)CC2)cc1

Resp:
inactive
inactive
inactive

---

Molecular target: Muscleblind-like protein 1 (Homo sapiens) (UniProt Q9NR56)
Test: qHTS Assay for Inhibitors of MBNL1-poly(CUG) RNA binding
Details: TR-FRET MBNL1-His/biotin-(CUG)12 binding, 665/545 ratio; series mostly up to 57.5 µM
The whole screen tested about 280,000 compounds, of which about 100 (0.036%) were called active. Not shown: some 11% with an inconclusive outcome. This excerpt belongs to a sample that is enriched for actives.
quantity: activity change, negative = inhibition

Previously resolved entries follow.
>>> measurement("Cc1cc(C)c(NC(=O)CN2CCCCCC2)c(C)c1")
"inactive"
>>> measurement("COc1ccc2c(C)c(CCC(=O)NC3CC3)c(=O)oc2c1C")
"inactive"
>>> measurement("C/C(=N\\NC(=O)c1ccoc1C)c1ccccc1O")
"inactive"
>>> measurement("Cc1cc(C)c(SCCc2ccncc2)c(C)c1")
"inactive"
>>> measurement("COc1ccc(-c2cc(C(=O)N3CCN(Cc4ccc5c(c4)OCO5)CC3)on2)cc1OC")
"inactive"
>>> measurement("CCNC(=O)N1CCCC(C(=O)c2ccc(-c3ccccc3)cc2)C1 (configuration not stated)")
"inactive"
>>> measurement("CCCCn1c(-c2cccc(C)c2)nc2cc3[nH]c(=O)c(C(C)C)nc3cc21")
"inactive"
>>> measurement("CCCCC(=O)Nc1ccccc1N1CCN(c2ccc(F)cc2)CC1")
"inactive"

Each molecule below has a recorded value; state its activity change, negative = inhibition.
1. Cc1ccccc1C(=O)N1CCN(c2ccc(NC(=O)c3cccs3)cc2)CC1
2. CCc1ccccc1N(CC(=O)NCC1CCCO1)C(=O)CCC(=O)Nc1nccs1 (configuration not stated)
3. COc1ccc(CCNC(=O)c2ccccc2OCc2ccccc2)cc1
4. COc1ccccc1CCNC(=O)c1c(C)nn(CC(C)C)c1Cl
5. Cc1cc(Cl)ccc1C(=O)C1CCCN(C(=O)c2nonc2C)C1 (configuration not stated)
6. CC(C)CN(Cc1c(O)ccc2c(=O)c(-c3ccccc3)coc12)CC(C)C

Resp:
1. inactive
2. inactive
3. inactive
4. inactive
5. inactive
6. inactive

Each molecule below has a recorded value; state its activity change, negative = inhibition.
1. Cc1ccc(OCC(=O)Nc2ccc(C(=O)O)cc2NC(=O)COc2ccc(C)c(C)c2)cc1C
2. CC(=O)N1CCC(C(=O)OCc2ccc(Cl)cc2)(c2ccccc2)CC1
3. COc1cc(C(=O)NCc2cc3cc(Cl)ccc3n2C)cc(OC)c1OC

Resp:
inactive
inactive
inactive

Each molecule below has a recorded value; state its activity change, negative = inhibition.
1. CSc1ccccc1OCc1cc(C(=O)N(C)CCc2c(C)n[nH]c2C)no1
2. COc1ccc(NS(=O)(=O)c2cc(C(=O)Nc3ccccc3C(=O)O)ccc2C)cc1
3. Cc1cc(=O)oc2c(C)c(OC(C)C(=O)NC3CCN(Cc4ccccc4)CC3)ccc12 (configuration not stated)
4. Cc1ccc(CS(=O)Cc2ccc(C(=O)N3CCOCC3)o2)cc1 (configuration not stated)
5. CCc1ccc(C(CNc2nc(C(F)(F)F)nc3ccccc23)N(C)C)cc1 (configuration not stated)

Resp:
1. inactive
2. inactive
3. inactive
4. inactive
5. inactive
